Attribution: ChEMBL document CHEMBL1151509

- Experimental System: Platelet-activating factor receptor (Rattus norvegicus, UniProt P46002)
- Sequence (P46002 whole entry): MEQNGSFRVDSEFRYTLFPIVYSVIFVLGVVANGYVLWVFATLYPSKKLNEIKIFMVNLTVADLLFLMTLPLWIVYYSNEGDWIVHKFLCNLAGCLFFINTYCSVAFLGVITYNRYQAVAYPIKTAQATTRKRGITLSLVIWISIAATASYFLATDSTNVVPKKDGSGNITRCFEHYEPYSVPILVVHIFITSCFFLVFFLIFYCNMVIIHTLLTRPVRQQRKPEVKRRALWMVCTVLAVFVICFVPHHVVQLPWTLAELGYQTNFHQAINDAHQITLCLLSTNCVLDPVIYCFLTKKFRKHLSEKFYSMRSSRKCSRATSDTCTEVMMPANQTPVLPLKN
Experimental Readout: Ki (nM)

[1] CN(C)C(=O)n1cc(C(=O)c2ccn3c2C[S+]([O-])[C@@H]3c2cccnc2)c2ccc(-c3ccc(F)cc3)cc21 (stereo in doubt; cis)
[2] CN(C)C(=O)n1cc(C(=O)c2ccn3c2C[S+]([O-])[C@@H]3c2cccnc2)c2ccc(-c3ccc(F)cc3)cc21 (stereo in doubt; trans)
Min Ki? 1 | 2 Could you answer with the label of the item you picked?
1
